Biological target: Canine_OSMR_hlgG1_Fc (canine)
Sequence (chain, as listed by the source limits assumed, form in doubt): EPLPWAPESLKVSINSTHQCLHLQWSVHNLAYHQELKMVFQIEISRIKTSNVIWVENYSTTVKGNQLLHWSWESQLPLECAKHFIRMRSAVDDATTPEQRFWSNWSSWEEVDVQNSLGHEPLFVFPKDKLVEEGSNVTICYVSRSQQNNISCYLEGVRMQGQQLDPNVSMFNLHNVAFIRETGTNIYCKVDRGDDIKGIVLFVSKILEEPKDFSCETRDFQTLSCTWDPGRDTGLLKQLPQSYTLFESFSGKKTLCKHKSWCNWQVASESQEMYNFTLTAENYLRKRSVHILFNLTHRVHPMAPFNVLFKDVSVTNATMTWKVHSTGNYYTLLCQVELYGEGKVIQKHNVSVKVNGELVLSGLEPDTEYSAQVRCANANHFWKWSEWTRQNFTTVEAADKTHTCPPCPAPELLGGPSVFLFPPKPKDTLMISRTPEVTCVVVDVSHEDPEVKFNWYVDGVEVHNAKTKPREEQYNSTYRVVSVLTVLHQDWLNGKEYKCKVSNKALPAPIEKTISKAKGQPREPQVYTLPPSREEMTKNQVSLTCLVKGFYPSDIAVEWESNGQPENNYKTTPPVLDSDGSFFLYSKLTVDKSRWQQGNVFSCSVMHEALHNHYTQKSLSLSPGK
Assay: SPR Biacore
property-measured: koff (s⁻¹)
One number for each entry, in s⁻¹.

Mu_02D09_VH (SEQ ID NO: 31)_D31A (antibody, V domains shown) VH: EVQLVESGGGLVKPGGSLTLSCAASGFTFSAYGMHWLRQAPEKGLEWVAYISSGSRAVFFADTVKGRFTISRDNAKNTLFLQMTSLRSDDTAMYYCARDRYDGRGFAYWGQGTLVTVSA VL: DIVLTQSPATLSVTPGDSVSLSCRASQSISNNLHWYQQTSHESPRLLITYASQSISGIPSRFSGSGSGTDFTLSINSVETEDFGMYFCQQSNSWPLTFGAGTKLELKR :: 0.00356

Give measured koff for every item shown.
1. Mu_10F07_VL (SEQ ID NO: 41)_T53A (antibody, V domains shown) VH: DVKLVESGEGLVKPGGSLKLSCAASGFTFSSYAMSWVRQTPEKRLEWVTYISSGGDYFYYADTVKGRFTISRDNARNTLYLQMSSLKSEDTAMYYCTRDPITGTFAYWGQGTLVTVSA VL: DIQMTQTTSSLSASLGDRVTISCRASQDITNYLNWYQQKPDGTVKLLIYYTSALHSGVPSRFSGSGSGTDFSLTISNLEQEDIATYFCQQGHMLPWTFGGGTKLEIKR
2. Mu_10F07_VL (SEQ ID NO: 41)_T97A (antibody, V domains shown) VH: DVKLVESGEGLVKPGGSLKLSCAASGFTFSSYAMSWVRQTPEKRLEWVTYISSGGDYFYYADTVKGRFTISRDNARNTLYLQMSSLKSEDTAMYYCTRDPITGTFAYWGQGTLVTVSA VL: DIQMTQTTSSLSASLGDRVTISCRASQDITNYLNWYQQKPDGTVKLLIYYTSTLHSGVPSRFSGSGSGTDFSLTISNLEQEDIATYFCQQGHMLPWAFGGGTKLEIKR

[out]
0.000256
0.000219
